Tested on: left atrium
Experiment: Negative inotropic effect on electrically driven left atrium
Assay type: cell-based, New Zealand white rabbit
Details: Oryctolagus cuniculus; negative inotropic effect; compound concentrations in the table in mol; read-out: ID50 (× 10^-4)
assay_endpoint: IC50 (µM)
// units = µM; emit number, no label

[
  {
    "molecule": "COC(=O)C1=C(C)NC(C)=C(C(=O)OCCN(C)Cc2ccccc2)C1c1cccc([N+](=O)[O-])c1 (centres unmarked)",
    "assay_endpoint": "IC50",
    "result": 34
  }
]

Proceeding to the next molecule to report its IC50.
For CC1=C(C(=O)OCCN(C)Cc2ccccc2)C(c2cccc([N+](=O)[O-])c2)C(C(=O)OCC2CC2)=C(C)N1 (centres unmarked) the molecule record lists IC50 as 320

* * *

Test system: vertebral arterial blood flow
Assay: Effect of compounds on vertebral arterial blood flow in anesthetized dogs
Type: in vivo, mongrel dogs
Conditions: 1 μg/kg, i.v.
assay_endpoint: Change (%) VABF
// units = %; emit number, no label

[
  {
    "molecule": "COC(=O)C1=C(C)NC(C)=C(C(=O)OCCN(C)Cc2ccccc2)C1c1cccc([N+](=O)[O-])c1 (stereo not shown)",
    "result_units": "%",
    "Change (%) VABF": 32
  },
  {
    "molecule": "CC1=C(C(=O)OCCN(C)Cc2ccc(Cl)cc2)C(c2cccc([N+](=O)[O-])c2)C(C(=O)OCC2CC2)=C(C)N1 (stereo not shown)",
    "result_units": "%",
    "Change (%) VABF": 56
  }
]

For COc1ccc(CN(C)CCOC(=O)C2=C(C)NC(C)=C(C(=O)OCC3CC3)C2c2cccc([N+](=O)[O-])c2)cc1 (stereo not shown) the molecule record lists Change (%) VABF as 33

For CC1=C(C(=O)OCCN(C)Cc2ccccc2)C(c2cccc([N+](=O)[O-])c2)C(C(=O)OCC2CC2)=C(C)N1 (stereo not shown) the molecule record lists Change (%) VABF as 51
